experiment: maxima of UV-A and UV-B absorption of quinoxaline derivatives in 2-propanol
Assay type: physicochemical
cond: 1 mg of substance per 100 ml of solvent, absorbance at UV-A maximum
readout_kind: UV-A (400 320 nm) Max. abs.
Enter the number alone.

Record `c1ccc2nc3[nH]cnc3nc2c1` , field UV-A (400 320 nm) Max. abs.: 0.5227

Record `CC(C)(C)c1nc2nc3ccccc3nc2[nH]1` , field UV-A (400 320 nm) Max. abs.: 0.6290

Record `CC(=O)c1ccc(-n2c(-c3ccccc3)cc3nc4ccccc4nc32)cc1` , field UV-A (400 320 nm) Max. abs.: 0.4067

Record `FC(F)(F)c1nc2nc3ccccc3nc2[nH]1` , field UV-A (400 320 nm) Max. abs.: 0.4875

Record `O=C(O)c1ccc(-n2c(-c3ccccc3)cc3nc4ccccc4nc32)cc1` , field UV-A (400 320 nm) Max. abs.: 0.3685

Record `Cc1nc2nc3ccccc3nc2[nH]1` , field UV-A (400 320 nm) Max. abs.: 0.5824

Record `CC(=O)c1ccc(-n2c([SiH2]C(C)C)cc3nc4ccccc4nc32)cc1` , field UV-A (400 320 nm) Max. abs.: 0.5774

----------
experiment: maxima of UV-A and UV-B absorption of quinoxaline derivatives in 2-propanol
Format: physicochemical
cond: 1 mg of substance per 100 ml of solvent, wavelength of UV-A maximum
Method: The measurement was carried out in 2-propanol at a concentration of 1 mg of substance per 100 ml of solvent.
readout_kind: UV-A (400 320 nm) λ[nm]
Only the number, expressed in nm, is required.

Record `c1ccc2nc3[nH]cnc3nc2c1` , field UV-A (400 320 nm) λ[nm]: 328.0

Record `CC(=O)c1ccc(-n2c([SiH2]C(C)C)cc3nc4ccccc4nc32)cc1` , field UV-A (400 320 nm) λ[nm]: 403.0

Record `FC(F)(F)c1cc(-c2nc3nc4ccccc4nc3[nH]2)cc(C(F)(F)F)c1` , field UV-A (400 320 nm) λ[nm]: 358.0

Record `CC(C)(C)c1nc2nc3ccccc3nc2[nH]1` , field UV-A (400 320 nm) λ[nm]: 330.0

Record `c1ccc(-c2cc3nc4ccccc4nc3[nH]2)cc1` , field UV-A (400 320 nm) λ[nm]: 367.0

Record `FC(F)(F)c1nc2nc3ccccc3nc2[nH]1` , field UV-A (400 320 nm) λ[nm]: 327.5

----------
experiment: maxima of UV-A and UV-B absorption of quinoxaline derivatives in 2-propanol
Assay type: physicochemical
cond: 1 mg of substance per 100 ml of solvent, absorbance at UV-A maximum
Task for the reader: assign each of the following molecules its reported UV-A (400 320 nm) Max. abs..
Enter the number alone.

Record `c1ccc(-c2cc3nc4ccccc4nc3[nH]2)cc1` , field UV-A (400 320 nm) Max. abs.: 0.7158

Record `FC(F)(F)c1cc(-c2nc3nc4ccccc4nc3[nH]2)cc(C(F)(F)F)c1` , field UV-A (400 320 nm) Max. abs.: 0.7037

Record `c1ccc2nc3[nH]ccc3nc2c1` , field UV-A (400 320 nm) Max. abs.: 0.5381
